targetSystem: P2X2/3 (Homo sapiens (Human), UniProt P56373+Q9UBL9)
Sequence (Q9UBL9 whole entry): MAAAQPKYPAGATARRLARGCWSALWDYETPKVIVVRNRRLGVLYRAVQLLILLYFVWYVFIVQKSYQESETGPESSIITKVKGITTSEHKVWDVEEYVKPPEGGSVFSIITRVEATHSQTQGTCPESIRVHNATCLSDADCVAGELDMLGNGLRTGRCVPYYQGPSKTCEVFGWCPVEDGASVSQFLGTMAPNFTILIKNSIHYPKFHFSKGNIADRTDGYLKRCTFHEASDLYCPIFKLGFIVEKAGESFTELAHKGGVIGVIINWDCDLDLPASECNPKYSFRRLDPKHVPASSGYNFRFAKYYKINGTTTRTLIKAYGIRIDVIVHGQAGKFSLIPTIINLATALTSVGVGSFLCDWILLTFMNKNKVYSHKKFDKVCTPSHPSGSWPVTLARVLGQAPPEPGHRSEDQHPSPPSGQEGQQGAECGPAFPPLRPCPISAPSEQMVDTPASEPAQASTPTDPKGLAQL
Sequence (P56373 whole entry): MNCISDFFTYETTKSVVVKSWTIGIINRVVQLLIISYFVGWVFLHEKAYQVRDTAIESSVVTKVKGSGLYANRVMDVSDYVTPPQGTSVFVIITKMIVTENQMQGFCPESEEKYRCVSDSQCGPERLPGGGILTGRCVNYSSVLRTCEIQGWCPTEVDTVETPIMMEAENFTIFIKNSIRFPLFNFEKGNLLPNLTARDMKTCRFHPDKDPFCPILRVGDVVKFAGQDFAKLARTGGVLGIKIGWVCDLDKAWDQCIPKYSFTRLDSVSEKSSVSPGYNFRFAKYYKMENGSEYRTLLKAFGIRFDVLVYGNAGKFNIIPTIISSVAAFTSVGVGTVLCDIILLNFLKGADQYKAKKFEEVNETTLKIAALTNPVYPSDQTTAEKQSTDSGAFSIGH
methodNotes: Calcium uptake assay (P2X antagonist assay), P2X2/3
testConditions: inhibition of agonist-induced calcium influx
pIC50: −log10 of the molar value.
parameter: pIC50

compound	parameter	value
Cc1ccc(N2CCc3ncnc(NC(CCO)c4ccc(C(F)(F)F)nc4)c3C2)nc1 (centres unmarked) [Compound 56]	pIC50	6.28
Cc1ccc(N2CCc3ncnc(NC(C)c4ccccn4)c3C2)nc1 (centres unmarked) [Compound 10]	pIC50	5.40
Cc1ccc(N2CCc3ncnc(N[C@H](C)c4ccc(C(F)(F)F)nc4)c3C2)nc1 [Compound 50]	pIC50	6.55
Cc1ccc(N2CCc3ncnc(N[C@H](CCO)c4ccc(C(F)(F)F)nc4)c3C2)nc1 [Compound 63]	pIC50	6.47
Cc1ccc(N2CCc3ncnc(N[C@H](C)c4ccc(F)cc4)c3C2)nc1 [Compound 49]	pIC50	5.91

[I] Cc1ccc(N2CCc3ncnc(NC(C)c4cccnc4)c3C2)nc1 (centres unmarked) [Compound 11]
[II] COc1cccc([C@@H](C)Nc2ncnc3c2CN(c2ccc(C)cn2)CC3)c1 [Compound 47]
[III] Cc1ccc([C@@H](C)Nc2ncnc3c2CN(c2ccc(C)cn2)CC3)cc1 [Compound 34]
[IV] COc1ccc([C@@H](CO)Nc2ncnc3c2CN(c2ccc(Cl)cn2)CC3)cn1 [Compound 59]
Arrange these 4 compounds in increasing order of pIC50. Your task in answering is to list the labels in the requested order.
I, III, II, IV

[P] Cc1ccc(N2CCc3ncnc(NC(C)c4ccc(S(C)(=O)=O)cc4)c3C2)nc1 (centres unmarked) [Compound 5]
[Q] Cc1ccc(N2CCc3ncnc(N[C@H](C)c4ccc(Cl)cc4)c3C2)nc1 [Compound 7]
[R] Cc1ccc(N2CCc3ncnc(NC(C)c4cc(F)cc(F)c4)c3C2)nc1 (centres unmarked) [Compound 17]
Which order do these items take when sorted by rising pIC50? List them. The response must list the labels following the requested ordering.
P, Q, R
(P: 5.37, Q: 5.72, R: 6.10)
